Test system: CCRIS mutagenicity, Ames/micronucleus/aberration tests
Experiment: CCRIS mutagenicity studies
Details: Test System: AMES SALMONELLA TYPHIMURIUM; Strain/Indicator: TA98; Metabolic Activation: RAT, LIVER, S-9, AROCLOR 1254 (30%); Method: PREINCUBATION
Calls of active or inactive are those of the source. No rule for the calls is given here.
Permitted responses: t (active), f (inactive)

Req: What call does the record list for "Cc1ccc(N)cc1" ?
Resp: f

Req: Field entry: "Oc1cc(Cl)c(Cl)c(Cl)c1"
Resp: f

Req: Field entry: "FC(F)(F)c1cccc(Cl)c1"
Resp: f

Req: Queued: CCCCC(C=O)CC (centres undefined)
Resp: f

Req: Now consider "Oc1cccc(Nc2ccccc2)c1" and answer again.
Resp: f

Req: And "Oc1cccc2cccnc12" ?
Resp: t

Req: Please give the result for "OCC(CO)(CBr)CBr" too.
Resp: f

Req: Also check "CCCCOCCCC"
Resp: f

Req: Likewise for "Cc1ccc(Cl)cc1" ?
Resp: f

The measured values listed here are drawn from PubChem BioAssay AID1259407.
